Where do these numbers come from? They come from ChEMBL document CHEMBL3714729.

Target desc: Casein kinase II subunit alpha' (Homo sapiens, UniProt P19784)
Sequence (P19784 whole entry): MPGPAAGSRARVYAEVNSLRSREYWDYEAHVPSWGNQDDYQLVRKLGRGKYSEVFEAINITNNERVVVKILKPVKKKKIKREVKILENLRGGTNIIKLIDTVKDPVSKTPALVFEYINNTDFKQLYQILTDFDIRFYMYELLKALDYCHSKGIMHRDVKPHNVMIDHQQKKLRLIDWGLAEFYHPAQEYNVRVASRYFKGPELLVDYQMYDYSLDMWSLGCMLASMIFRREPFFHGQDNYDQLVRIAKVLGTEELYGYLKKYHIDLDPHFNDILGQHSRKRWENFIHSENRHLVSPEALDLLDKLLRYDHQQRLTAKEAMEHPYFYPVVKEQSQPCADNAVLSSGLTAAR
Assay info: Inhibition of GST-tagged full-length purified human CK2a2 using RRRDDDSDDD substrate incubated for 120 mins in presence of [33P]ATP by scintillation counting based biochemical assay
pIC50: −log10 of the molar value.
Endpoint name: pIC50

Observe how each entry below is paired with its result.
O=c1cc(-c2ccc3c(c2)CCO3)[nH]c2c(-c3ccccn3)c(O)nn12 ≤ 5.00
O=c1cc(-c2cc3nn[nH]c3cc2F)[nH]c2c(-c3ccccn3)cnn12 ≥ 5.00
Nc1nn2c(=O)cc(-c3ccc(Cl)cc3F)[nH]c2c1-c1ccccn1 ≥ 5.00

Noted pIC50 for Nc1nn2c(=O)cc(-c3ccc(F)cc3)[nH]c2c1-c1ccccn1 , tested on Casein kinase II subunit alpha' (Homo sapiens, UniProt P19784): ≥ 5.00

Noted pIC50 for CN(Cc1ccccc1)C(=O)c1cnn2c(=O)cc(-c3ccc4c(c3)OCCO4)[nH]c12 , tested on Casein kinase II subunit alpha' (Homo sapiens, UniProt P19784): ≥ 5.00
